experimental target: T1, rat α-CGRP (1-37) (rat, C-terminal amide; N-terminal biotin when captured on the SA chip)
T1 construct: also called rat α (1-37); α-rat
T1 peptide: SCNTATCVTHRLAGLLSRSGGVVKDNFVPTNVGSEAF
protocol notes: Biacore, 37°C, Fab over CGRP on SA chip
measured attribute: pKd
Conceptually, pKd converts a concentration in mol/L into minus its log10.

G1 variant M12 Fab (Fab, V domains shown, Fab; constant domains as m1) VH: EVQLVESGGGLVQPGGSLRLSCAASGFTFSNYWISWVRQAPGKGLEWVAEIRSESDASATHYAEAVKGRFTISRDNAKNSLYLQMNSLRAEDTAVYYCSVYFDYGLAIQNYWGQGTLVTVSS VL: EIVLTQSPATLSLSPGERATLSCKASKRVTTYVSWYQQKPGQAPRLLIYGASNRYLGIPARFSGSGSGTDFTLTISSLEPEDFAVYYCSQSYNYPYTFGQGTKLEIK    6.97
G1 variant M40 Fab (Fab, V domains shown, Fab; constant domains as m1) VH: EVQLVESGGGLVQPGGSLRLSCAASGFTFSNYWISWVRQAPGKGLEWVAEIRSKSDLSATHYAEAVKGRFTISRDNAKNSLYLQMNSLRAEDTAVYYCTVYFDYGLAIQNYWGQGTLVTVSS VL: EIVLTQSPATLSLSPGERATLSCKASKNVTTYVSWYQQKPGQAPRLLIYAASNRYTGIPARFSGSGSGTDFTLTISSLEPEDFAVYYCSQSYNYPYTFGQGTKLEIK    4.70

Field: next binder
Entry under test: G1 variant M60 Fab (Fab, V domains shown, Fab; constant domains as m1) VH: EVQLVESGGGLVQPGGSLRLSCAASGFTFSNYWISWVRQAPGKGLEWVAEIRSKSDNRATFYAEAVKGRFTISRDNAKNSLYLQMNSLRAEDTAVYYCTVYFDYGLAIQNYWGQGTLVTVSS VL: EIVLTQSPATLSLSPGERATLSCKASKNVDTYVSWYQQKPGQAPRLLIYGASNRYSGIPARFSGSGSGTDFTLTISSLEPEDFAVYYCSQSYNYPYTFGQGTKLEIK . Its pKd was 5.82
